Origin of values: paper PMC8903829

Biological target: hNaV1.6 (Homo sapiens)
Construct: expression vector containing the full-length cDNA coding for specific human and mouse sodium channel α-subunit; expressed in transfected cells
Sequence (Q9UQD0 whole entry): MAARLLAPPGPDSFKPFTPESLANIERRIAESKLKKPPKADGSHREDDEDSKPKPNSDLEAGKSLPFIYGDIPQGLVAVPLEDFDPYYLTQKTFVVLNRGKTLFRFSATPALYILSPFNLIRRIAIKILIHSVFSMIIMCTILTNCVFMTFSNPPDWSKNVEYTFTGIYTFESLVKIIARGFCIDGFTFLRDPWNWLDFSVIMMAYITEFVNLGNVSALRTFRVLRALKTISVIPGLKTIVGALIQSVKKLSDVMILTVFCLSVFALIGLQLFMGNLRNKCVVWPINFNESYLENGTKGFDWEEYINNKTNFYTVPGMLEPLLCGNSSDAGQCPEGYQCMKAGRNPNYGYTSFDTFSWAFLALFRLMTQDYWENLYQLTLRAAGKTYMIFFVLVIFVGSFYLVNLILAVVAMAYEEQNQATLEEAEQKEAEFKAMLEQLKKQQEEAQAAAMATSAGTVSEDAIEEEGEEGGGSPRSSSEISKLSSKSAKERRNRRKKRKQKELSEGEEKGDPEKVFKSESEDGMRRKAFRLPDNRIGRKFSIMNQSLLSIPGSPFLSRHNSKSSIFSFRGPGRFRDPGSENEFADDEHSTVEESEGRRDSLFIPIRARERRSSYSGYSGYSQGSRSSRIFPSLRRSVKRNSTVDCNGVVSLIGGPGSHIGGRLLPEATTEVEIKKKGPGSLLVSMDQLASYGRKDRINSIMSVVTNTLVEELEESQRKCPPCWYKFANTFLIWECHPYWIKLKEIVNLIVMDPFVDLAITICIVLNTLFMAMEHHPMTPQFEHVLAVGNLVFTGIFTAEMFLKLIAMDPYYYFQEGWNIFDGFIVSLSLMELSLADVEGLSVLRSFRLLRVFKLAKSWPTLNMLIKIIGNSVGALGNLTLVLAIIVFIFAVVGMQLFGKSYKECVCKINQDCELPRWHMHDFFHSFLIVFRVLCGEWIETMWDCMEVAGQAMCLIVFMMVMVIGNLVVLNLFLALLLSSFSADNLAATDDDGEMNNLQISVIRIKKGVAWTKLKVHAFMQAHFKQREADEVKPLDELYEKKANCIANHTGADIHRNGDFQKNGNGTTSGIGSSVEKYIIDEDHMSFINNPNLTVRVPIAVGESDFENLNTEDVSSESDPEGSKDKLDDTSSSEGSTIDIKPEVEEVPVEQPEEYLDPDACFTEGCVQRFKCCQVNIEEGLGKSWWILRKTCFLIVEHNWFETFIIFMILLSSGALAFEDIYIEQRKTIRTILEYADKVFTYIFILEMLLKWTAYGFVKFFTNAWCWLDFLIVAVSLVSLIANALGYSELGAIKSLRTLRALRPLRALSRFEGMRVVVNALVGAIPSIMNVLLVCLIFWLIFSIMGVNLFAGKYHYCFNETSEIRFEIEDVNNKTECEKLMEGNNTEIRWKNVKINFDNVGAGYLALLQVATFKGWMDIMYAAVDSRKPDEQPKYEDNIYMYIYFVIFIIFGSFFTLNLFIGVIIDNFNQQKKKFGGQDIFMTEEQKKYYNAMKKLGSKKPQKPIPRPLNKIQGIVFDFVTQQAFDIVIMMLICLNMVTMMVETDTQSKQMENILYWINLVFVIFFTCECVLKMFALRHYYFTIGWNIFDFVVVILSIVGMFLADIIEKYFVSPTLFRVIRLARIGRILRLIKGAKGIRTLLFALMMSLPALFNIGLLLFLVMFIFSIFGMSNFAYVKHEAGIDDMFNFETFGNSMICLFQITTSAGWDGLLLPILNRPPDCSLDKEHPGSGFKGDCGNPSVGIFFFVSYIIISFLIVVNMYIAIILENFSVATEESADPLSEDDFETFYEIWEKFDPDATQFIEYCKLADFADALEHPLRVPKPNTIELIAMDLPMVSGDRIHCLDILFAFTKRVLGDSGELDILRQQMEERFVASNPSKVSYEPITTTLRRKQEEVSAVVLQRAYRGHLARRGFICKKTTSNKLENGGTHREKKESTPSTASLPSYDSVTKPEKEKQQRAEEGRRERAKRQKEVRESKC
Experiment: Qube 384 automated patch-clamp, inactivated-state inhibition
Type: cell-based
MEASUREMENT LABEL: IC50 (nM)

>  <SMILES CODE>
Cc1cc(S(=O)(=O)Nc2cscn2)c(F)cc1N(C)[C@H]1CCN(Cc2ccccc2)C1

>  <MEASUREMENT LABEL>
IC50

>  <QUANTITY UNIT>
nM

>  <REPORTED>
51

$$$$

====

Experiment: Bioanalytical assessment of plasma and brain concentrations after mouse DC-MES assay
Format: in vivo
Conditions: mouse, brain, intraperitoneal, 2 mg/kg, Study17136, 2 mg/kg, WT mouse DC-MES acute; read-out: Mean [Brain]
MEASUREMENT LABEL: concentration at 2 h (µM)

>  <COMPOUND>
O=C1NC(=O)C(c2ccccc2)(c2ccccc2)N1 [phenytoin, Phenytoin]

>  <REPORTED>
3.6

$$$$
